Molecular target: furin, P09958;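 note: purified furin at 1:10 enzyme:substrate in 50 mM HEPES pH 7.5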
Sequence (P09958 whole entry): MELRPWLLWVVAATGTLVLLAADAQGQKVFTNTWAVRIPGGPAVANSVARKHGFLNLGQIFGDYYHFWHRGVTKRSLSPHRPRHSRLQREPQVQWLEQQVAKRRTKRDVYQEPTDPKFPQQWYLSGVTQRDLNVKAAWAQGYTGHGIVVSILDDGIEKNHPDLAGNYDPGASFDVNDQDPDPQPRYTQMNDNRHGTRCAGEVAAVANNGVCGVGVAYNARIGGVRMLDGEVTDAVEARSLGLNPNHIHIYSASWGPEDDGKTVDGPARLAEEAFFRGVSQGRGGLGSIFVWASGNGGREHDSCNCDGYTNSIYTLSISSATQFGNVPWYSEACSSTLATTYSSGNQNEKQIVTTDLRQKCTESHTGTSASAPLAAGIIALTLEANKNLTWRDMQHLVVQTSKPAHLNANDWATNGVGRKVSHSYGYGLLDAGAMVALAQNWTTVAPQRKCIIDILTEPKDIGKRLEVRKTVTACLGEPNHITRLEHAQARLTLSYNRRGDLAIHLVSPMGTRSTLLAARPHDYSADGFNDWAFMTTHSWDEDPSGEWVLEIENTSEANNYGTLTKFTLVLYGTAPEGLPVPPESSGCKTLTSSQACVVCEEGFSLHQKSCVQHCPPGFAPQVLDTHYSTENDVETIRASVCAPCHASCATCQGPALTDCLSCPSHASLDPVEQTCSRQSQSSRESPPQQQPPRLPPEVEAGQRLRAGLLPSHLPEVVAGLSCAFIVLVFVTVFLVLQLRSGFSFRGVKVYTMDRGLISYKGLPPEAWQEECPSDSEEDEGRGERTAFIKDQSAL
Experiment: furin cleavage Z-score vs untreated control; higher = more cleavage, active = 3.5 or more, inactive = 1 or less, 8 variable residues between constant flanks
Details: 15 min
The other results are listed elsewhere or left out. How many sequences the whole screen found active is unknown.
Respond with a class label; see active, inactive

[in] For CAPKGPVIQMAGNASASA [HC707] , what call appears in the results of this test?
[out] inactive

[in] For CAAKLMPQLPAGNASASA [HC1159] , what call appears in the results of this test?
[out] inactive

[in] For CAHPHRTKREAGNASASA [FS-795] , what call appears in the results of this test?
[out] active

[in] For CAHPKQEKRSAGNASASA [FS-1209] , what call appears in the results of this test?
[out] inactive

[in] For CARSRKAKEEAGNASASA [FS-2186] , what call appears in the results of this test?
[out] inactive

[in] For CACVWRRKRKAGNASASA [FS-324] , what call appears in the results of this test?
[out] active

[in] For CAVVCCSNSYAGNASASA [HC2061] , what call appears in the results of this test?
[out] inactive

[in] For CAAYQVRNSTAGNASASA [HC256] , what call appears in the results of this test?
[out] inactive

[in] For CAREFRIIFDAGNASASA [FS-2002] , what call appears in the results of this test?
[out] inactive

[in] For CARSRRDGRKAGNASASA [FS-3172] , what call appears in the results of this test?
[out] active

[in] For CADIHRNKRKAGNASASA [FS-408] , what call appears in the results of this test?
[out] inactive

[in] For CANNHVYRRSAGNASASA [FS-834] , what call appears in the results of this test?
[out] active

[in] For CAVPHPNIEEAGNASASA [HC839] , what call appears in the results of this test?
[out] inactive

[in] For CALTERTKREAGNASASA [FS-1138] , what call appears in the results of this test?
[out] active

[in] For CALTESTLSTAGNASASA [HC1328] , what call appears in the results of this test?
[out] inactive

[in] For CAHRSRKAKEAGNASASA [FS-1010] , what call appears in the results of this test?
[out] inactive

[in] For CARSRRGVSEAGNASASA [FS-2461] , what call appears in the results of this test?
[out] active

[in] For CAAAGQLDLSAGNASASA [HC1641] , what call appears in the results of this test?
[out] inactive

[in] For CARWGRGFGLAGNASASA [FS-3129] , what call appears in the results of this test?
[out] inactive

[in] For CARSRKRVSEAGNASASA [FS-2460] , what call appears in the results of this test?
[out] inactive

[in] For CARSRRDREEAGNASASA [FS-3236] , what call appears in the results of this test?
[out] active

[in] For CAMERCSQHLAGNASASA [HC1713] , what call appears in the results of this test?
[out] inactive

[in] For CARDGRDGRKAGNASASA [FS-1999] , what call appears in the results of this test?
[out] inactive

[in] For CARIMRDSGLAGNASASA [FS-2150] , what call appears in the results of this test?
[out] inactive

[in] For CAEREISVPAAGNASASA [HC1293] , what call appears in the results of this test?
[out] inactive

[in] For CAENVVCCSMAGNASASA [HC2141] , what call appears in the results of this test?
[out] inactive

[in] For CAMEENSQHLAGNASASA [HC18] , what call appears in the results of this test?
[out] inactive
